Assay: 7-day repeated-dose PK in rats
Type: in vivo, Sprague Dawley rats
Details: female, Sprague Dawley, rat, plasma, po, 10 mg/kg/day, day 1, PO 10 mg/kg/day, F
parameter: Cmax (ng/mL)
Answers are plain numbers, in ng/mL.

*Q* Complete the entry with Cmax for C[C@]12CC[C@@H]3c4ccc(B(O)O)cc4C[C@@H](CCCCCCCCC[S+]([O-])CCCC(F)(F)C(F)(F)F)[C@H]3[C@@H]1CC[C@@H]2O (stereo partly shown) [ZB716, fulvestrant-3-boronic acid]
*A* 459

* * *

Assay: Single-dose PK and bioavailability of ZB716 in rats
Format: in vivo
Conditions: female, Sprague Dawley, rat, plasma; single dose, PO 30 mg/kg/day, F
parameter: Cmax

*Q* Complete the entry with Cmax for C[C@]12CC[C@@H]3c4ccc(B(O)O)cc4C[C@@H](CCCCCCCCC[S+]([O-])CCCC(F)(F)C(F)(F)F)[C@H]3[C@@H]1CC[C@@H]2O (stereo partly shown) [ZB716, fulvestrant-3-boronic acid]
*A* 3.52 µg/mL

* * *

System: CYP2B6
Test: CYP induction (enzyme activity) in cryopreserved human hepatocytes, CYP2B6
Details: human, plated cryopreserved human hepatocytes, Fold Induction, donor three, 0.15 µM
parameter: fold induction at 72 h, 0.15 µM
Numbers only.

*Q* Complete the entry with fold induction at 72 h, 0.15 µM for C[C@]12CC[C@@H]3c4ccc(B(O)O)cc4C[C@@H](CCCCCCCCC[S+]([O-])CCCC(F)(F)C(F)(F)F)[C@H]3[C@@H]1CC[C@@H]2O (stereo partly shown)
*A* 1.14

* * *

Test: 4-week repeat-dose toxicity/TK study in dogs
Type: in vivo, beagle dogs
Settings: female, beagle, dog, plasma, po, 100 mg/kg/day, day 28, PO 100 mg/kg/day, F
parameter: Tmax
# include the unit after the value

*Q* Complete the entry with Tmax for C[C@]12CC[C@@H]3c4ccc(B(O)O)cc4C[C@@H](CCCCCCCCC[S+]([O-])CCCC(F)(F)C(F)(F)F)[C@H]3[C@@H]1CC[C@@H]2O (stereo partly shown)
*A* 2 h

* * *

Tested on: CYP2B6
Assay: CYP induction (enzyme activity) in cryopreserved human hepatocytes, CYP2B6
Details: human, plated cryopreserved human hepatocytes, Fold Induction, donor one, 1000 µM
parameter: fold induction at 72 h, 1000 µM
Numbers only.

*Q* Complete the entry with fold induction at 72 h, 1000 µM for CCC1(c2ccccc2)C(=O)NC(=O)NC1=O [Phenobarbital, phenobarbital, reference compound]
*A* 5.44

* * *

Tested on: CYP3A4
Experiment: CYP induction (enzyme activity) in cryopreserved human hepatocytes, CYP3A4
Format: in vitro ADME
Conditions: human, plated cryopreserved human hepatocytes, donor three, 15 µM
parameter: fold induction at 72 h, 15 µM
Numbers only.

*Q* Complete the entry with fold induction at 72 h, 15 µM for C[C@]12CC[C@@H]3c4ccc(B(O)O)cc4C[C@@H](CCCCCCCCC[S+]([O-])CCCC(F)(F)C(F)(F)F)[C@H]3[C@@H]1CC[C@@H]2O (stereo partly shown)
*A* 0.318

* * *

Assay: 7-day repeated-dose PK in rats
Assay type: in vivo, Sprague Dawley rats
Conditions: female, Sprague Dawley, rat, plasma, po, 10 mg/kg/day, day 7, PO 10 mg/kg/day, F
parameter: AUC(0-t) (ng·h/mL)
Give bare numbers, in ng·h/mL.

*Q* Complete the entry with AUC(0-t) for C[C@]12CC[C@@H]3c4ccc(B(O)O)cc4C[C@@H](CCCCCCCCC[S+]([O-])CCCC(F)(F)C(F)(F)F)[C@H]3[C@@H]1CC[C@@H]2O (stereo partly shown)
*A* 2820
